- assay target: T1, human CDH6 (full-length and EC domain deletion mutants) (Homo sapiens, UniProt P55285)
- T1 construct: each one of the five EC domains could be deleted from full-length human CDH6; 3xFLAG (deletion mutants only, from the vector p3×FLAG-CMV-9); expressed in transfected cells; host or cells: 293α cells
- T1 sequence (P55285 160-790): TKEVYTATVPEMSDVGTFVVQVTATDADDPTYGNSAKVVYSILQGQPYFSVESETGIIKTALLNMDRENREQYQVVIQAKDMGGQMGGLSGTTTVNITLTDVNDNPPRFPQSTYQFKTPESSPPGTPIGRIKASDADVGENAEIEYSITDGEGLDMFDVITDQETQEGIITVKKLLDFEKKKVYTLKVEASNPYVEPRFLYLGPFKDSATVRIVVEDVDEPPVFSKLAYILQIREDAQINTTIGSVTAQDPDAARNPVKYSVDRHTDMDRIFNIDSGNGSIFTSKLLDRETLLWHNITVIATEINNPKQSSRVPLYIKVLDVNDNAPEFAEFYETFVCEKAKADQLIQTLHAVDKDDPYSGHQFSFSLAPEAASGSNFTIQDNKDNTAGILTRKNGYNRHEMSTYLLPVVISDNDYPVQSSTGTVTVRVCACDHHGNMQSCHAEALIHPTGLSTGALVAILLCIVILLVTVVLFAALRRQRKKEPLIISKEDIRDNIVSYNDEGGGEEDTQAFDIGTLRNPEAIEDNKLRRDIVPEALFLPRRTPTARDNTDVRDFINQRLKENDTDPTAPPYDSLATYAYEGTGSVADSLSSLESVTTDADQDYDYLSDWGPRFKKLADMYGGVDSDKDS
- test method notes: Epitope analysis of rat anti-CDH6 antibody by flow cytometry using domain deletion mutants
- Type: binding
- settings: flow cytometry; transfected 293α cells; antibody 20 nM
test readout: binding to EC1 deletion mutant

Task item: If you can, please state the reported binding to EC1 deletion mutant value of rG056: rat anti-human CDH6 monoclonal antibody produced by hybridoma rG056; variable regions SEQ ID NO: 30 and 35 (antibody, listed as Rattus norvegicus, V domains shown) VL: DVQMTQSPSSLAASPGESVSISCRATKSIGIYLAWYQQKPGKTFKLLIYSGSTLQSGTPSRFSGSGSGTDFTLTIRSLEPEDFGLYFCQQFYENPFTFGSGTKLEIRRA VH: EVQLQESGPGLVKPSQSLSLTCSVTDYSITTYFWGWIRKFPGNKMEWMGYMSYRGGTSYNPSLKSRISITRDTSKNQFFLQLNSVTTEDTATYYCARCPNYGGHSLVFDYWGQGVMVTVSS .
Reply: bind

Task item: If you can, please state the reported binding to EC1 deletion mutant value of rG061: rat anti-human CDH6 monoclonal antibody produced by hybridoma rG061; variable regions SEQ ID NO: 40 and 45 (antibody, listed as Rattus norvegicus, V domains shown) VL: DVQMTQSPSYLAASPGESVSISCKATKSISNYLAWYQQKPGEAYKVLIYSGSTLQSGTPSRFSGSGSGTDFTLTIRSLEPEDFGLYSCQQYYEKPLTFGSGTKLEIKRA VH: EVQLQESGPGLVKPSQSLSLTCSVTGYSITTYYWGWIRKFPGNKMEWMGYISYSGRTSYNPSLKSRMSITRDASKNQFFLQLNSVTTDDTATYYCARSPINHGGYWYFDFWGPGTMVTVSS .
Reply: bind

Task item: If you can, please state the reported binding to EC1 deletion mutant value of rG019: rat anti-human CDH6 monoclonal antibody produced by hybridoma rG019; variable regions SEQ ID NO: 10 and 15 (antibody, listed as Rattus norvegicus, V domains shown) VL: DIQMTQSPSLLSASVGDRVTLNCKASQNIYKNLAWYQQKLGEGPKLLIYDANTLQTGIPSRFSGSGSGSDFTLTISSLQPEDVATYFCQQYYSGWAFGGVTNLELKRA VH: QVQLQQSGAELVKPGSSVKISCKASGYTFTRNFMHWIKQQPGNGLEWIGWIYCGDGETEYNQKFNGKATLTADRSSSTAYMELSRLTSEDSAVYFCARGVYGGFAGGYFDFWGQGVMVTVSS .
Reply: bind

Source listed as patent US20240390512A1.
